The entries below come with measured protein stability index values attached.
B1: BCL2L13 (parent)
chain: QSLDQEILLKVKTEIEEELKSLDK

Variants of: B1
experimental_details: protein stability index of a GFP-peptide fusion (GPS, HEK-293T) (PSI 1-6); higher = more stable;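 further: lentivirally expressed fusions sorted by FACS into six bins by GFP to DsRed ratio, PSI derived from sequencing read proportions per bin multiplied by bin number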
condition_notes: c terminus: a fixed tail appended
Reply with the value as a number alone.

These solved cases illustrate the format of a correct answer.
mutant: S2N
protein stability index: 4.92
--
mutant: E16M
protein stability index: 3.09
--
mutant: E18H
protein stability index: 4.05
--
mutant: D23C
protein stability index: 3.42
--
mutant: E18A
protein stability index: 4.02

Which protein stability index is listed for D23R ?
3.78

Also, L22E please.
4.58
